- system.under.test: dopamine D-1 receptor (Rattus norvegicus, UniProt P18901)
- Construct: Striatal tissue was excised, pooled, and homogenized
- Sequence (P18901 whole entry): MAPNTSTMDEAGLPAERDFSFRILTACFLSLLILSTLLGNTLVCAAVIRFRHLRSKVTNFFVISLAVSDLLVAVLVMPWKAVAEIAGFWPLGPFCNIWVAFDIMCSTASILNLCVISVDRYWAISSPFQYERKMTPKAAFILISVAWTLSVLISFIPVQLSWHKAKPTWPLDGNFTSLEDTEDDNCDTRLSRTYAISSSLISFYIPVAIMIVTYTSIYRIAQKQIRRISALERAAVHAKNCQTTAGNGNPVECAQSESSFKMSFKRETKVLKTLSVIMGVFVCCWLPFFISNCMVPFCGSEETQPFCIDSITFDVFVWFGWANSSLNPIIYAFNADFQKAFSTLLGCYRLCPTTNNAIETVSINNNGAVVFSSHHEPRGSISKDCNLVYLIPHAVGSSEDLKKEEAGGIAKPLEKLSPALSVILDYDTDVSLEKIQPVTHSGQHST
- protocol.details: Competitive inhibition assay, displacement of 3H-SCH 23390 (D1), rat striatal tissue
- condition.details: 3H-SCH 23390 0.3 nM, rat striatum, pH 7.4, 37° C., 15 minutes
property.measured: pKi
// scale note: pKi = -log10(conc_M); give the bare number

Reference set (2 entries):
molecule | system.under.test | result
Cc1[nH]c2ccccc2c1C1CN(C)CCc2cc(Cl)c(O)cc21 (centres unmarked) | dopamine D-1 receptor (Rattus norvegicus, UniProt P18901) | 6.90
Cc1cc(C2CN(C)CCc3cc(Cl)c(O)cc32)c(C)[nH]1 (single isomer, unassigned; (+)) [(+)D] | dopamine D-1 receptor (Rattus norvegicus, UniProt P18901) | 9.27

Request: Look up pKi: Cc1cc(C2CN(C)CCc3cc(Cl)c(O)cc32)c(C)[nH]1 (racemic) [(±)C]
Response: 8.55

Request: Look up pKi: Cc1cc(C2CN(C)CCc3cc(Cl)c(O)cc32)c(C)[nH]1 (single isomer, unassigned; (-)) [(-)E]
Response: 7.39

Request: Look up pKi: Cc1cc2c(cc1O)C(n1ccc3ccccc31)CN(C)CC2 (centres unmarked)
Response: 6.22

Request: Look up pKi: Cc1cc(C2CN(C)CCc3cc(Cl)c(O)cc32)c(C)n1C (centres unmarked)
Response: 8.55

Request: Look up pKi: CN1CCc2cc(Cl)c(O)cc2C(c2cccn2C)C1 (centres unmarked)
Response: 7.39

Request: Look up pKi: CN1CCc2cc(Cl)c(O)cc2C(n2cccn2)C1 (centres unmarked)
Response: 7.92

Request: Look up pKi: CN1CCc2cc(Cl)c(O)cc2C(c2ccn(C)c2)C1 (centres unmarked)
Response: 8.66

Request: Look up pKi: CN1CCc2cc(Cl)c(O)cc2C(c2c[nH]c3ccccc23)C1 (centres unmarked)
Response: 7.26

Request: Look up pKi: CN1CCc2cc(Cl)c(O)cc2C(n2ccc3ccccc32)C1 (centres unmarked)
Response: 7.59

###

Ki values for the compounds below.
- system.under.test: D-2 receptor (Rattus norvegicus)
- Construct: Striatal tissue was excised, pooled, and homogenized
- Sequence (P61169 whole entry): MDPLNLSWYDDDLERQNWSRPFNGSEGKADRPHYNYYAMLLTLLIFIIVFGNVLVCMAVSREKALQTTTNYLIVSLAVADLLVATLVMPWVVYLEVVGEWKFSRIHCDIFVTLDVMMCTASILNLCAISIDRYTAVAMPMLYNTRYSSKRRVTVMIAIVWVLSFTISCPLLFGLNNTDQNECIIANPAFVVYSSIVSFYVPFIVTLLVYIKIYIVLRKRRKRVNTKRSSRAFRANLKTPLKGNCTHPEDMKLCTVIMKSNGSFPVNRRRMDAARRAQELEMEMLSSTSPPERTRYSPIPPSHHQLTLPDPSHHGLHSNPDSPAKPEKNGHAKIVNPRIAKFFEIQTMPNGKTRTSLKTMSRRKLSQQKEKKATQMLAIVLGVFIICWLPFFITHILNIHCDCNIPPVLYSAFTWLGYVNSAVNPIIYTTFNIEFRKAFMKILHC
- protocol.details: Competitive inhibition assay, displacement of 3H-spiperone (D2), rat striatal tissue
- condition.details: 3H-spiperone 0.2 nM, rat striatum, pH 7.4, 37° C., 15 minutes
Numeric answer only, unit nM assumed.

Reference set (4 entries):
compound | output.unit | Ki
Cc1cc(C2CN(C)CCc3cc(Cl)c(O)cc32)c(C)n1C (stereo not shown) | nM | 383
Cc1cc(C2CN(C)CCc3cc(Cl)c(O)cc32)c(C)[nH]1 (racemic) [(±)C] | nM | 2450
Cc1cc(C2CN(C)CCc3cc(Cl)c(O)cc32)c(C)[nH]1 (single isomer, unassigned; (-)) [(-)E] | nM | 613
Cc1cc(C2CN(C)CCc3cc(Cl)c(O)cc32)c(C)[nH]1 (single isomer, unassigned; (+)) [(+)D] | nM | 590

Request: Look up Ki: CN1CCc2cc(Cl)c(O)cc2C(c2ccn(C)c2)C1 (stereo not shown)
Response: 177

Request: Look up Ki: CN1CCc2cc(Cl)c(O)cc2C(c2cccn2C)C1 (stereo not shown)
Response: 10000
